target: α-7 nicotinic ACh receptor ion channels expressed in mammalian HEK 293 cells (Rattus norvegicus, UniProt Q05941); construct: expressed in transfected cells; test: Ca2+-sensitive, fluorescence-based assay for α-7 nicotinic acetylcholine receptor channel function in mammalian cells (FLIPR); type: cell-based; conditions: agonist activity, Ca2+ flux, read-out: FLIPR α7 activity rating (EC50)
Sequence (Q05941 23-502): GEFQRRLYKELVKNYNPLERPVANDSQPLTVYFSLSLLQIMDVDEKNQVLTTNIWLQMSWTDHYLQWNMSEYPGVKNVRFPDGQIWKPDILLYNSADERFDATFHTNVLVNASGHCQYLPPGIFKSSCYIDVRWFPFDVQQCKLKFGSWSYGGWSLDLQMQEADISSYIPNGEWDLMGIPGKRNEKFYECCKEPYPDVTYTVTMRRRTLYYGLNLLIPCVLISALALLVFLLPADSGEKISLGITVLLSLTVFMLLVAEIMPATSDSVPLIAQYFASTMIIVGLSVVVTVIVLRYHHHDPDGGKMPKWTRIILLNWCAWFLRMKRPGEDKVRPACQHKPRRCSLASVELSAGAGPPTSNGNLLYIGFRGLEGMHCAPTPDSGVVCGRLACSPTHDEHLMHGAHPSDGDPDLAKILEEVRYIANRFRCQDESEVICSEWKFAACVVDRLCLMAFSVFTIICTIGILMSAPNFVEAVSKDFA
pEC50: −log10 of the molar value.
test readout: pEC50

IN: Please report the recorded pEC50 for c1cncc(-c2ccnc(NC3=NC[C@@]4(CN5CCC4CC5)O3)c2)c1 [Example 1] .
OUT: > 7.00
